# Tested on: Viola tricolor
# Assay protocol: Post-emergence herbicidal activity against VIOTR
# Assay type: in vivo
# Condition label: Viola tricolor, 504 h, dosage 320 g/ha, rated about 3 weeks after treatment
Readout type: pest or weed control at 320 g/ha (%)

COC(=O)[C@H]1C[C@@H](NC(=O)C2(C(F)(F)F)CC(c3cc(F)cc(F)c3)=NO2)CO1 (relative stereo) [I-06]: 90
C=C[C@]1(C(=O)N[C@@H]2CO[C@@H](C(=O)OC)C2)CC(c2cc(F)cc(F)c2)=NO1 (mixture of isomers) [I-56]: 90
C=C[C@]1(C(=O)N[C@H]2CO[C@@H](C(=O)OCc3ccccc3)C2)CC(c2cc(F)cc(F)c2)=NO1 (mixture of isomers) [I-37]: 80
COC(=O)[C@H]1C[C@@H](NC(=O)C2(OC)CC(c3cc(Cl)cc(Cl)c3)=NO2)CO1 (relative stereo) [I-02]: 80
C=C[C@]1(C(=O)NC2COCC2C(=O)OC)CC(c2cc(F)cc(F)c2)=NO1 (stereo partly drawn) [I-26]: 80
COC(=O)C1COCC1NC(=O)C1(OC)CC(c2cc(F)cc(F)c2)=NO1 (stereo not drawn) [I-27]: 80
COC(=O)[C@H]1C[C@@H](NC(=O)C2(C)CC(c3cc(C)cc(Br)c3)=NO2)CO1 (relative stereo) [I-04]: 80
COC(=O)[C@@]1(OC)C[C@@H](NC(=O)C2(C)CC(c3cccc(F)c3)=NO2)CO1 (stereo partly drawn) [I-47]: 80
COC(=O)[C@H]1C[C@@H](NC(=O)C2(C)CC(c3cc(F)cc(F)c3)=NO2)CO1 (relative stereo) [I-01]: 90
COC(=O)[C@H]1C[C@@H](NC(=O)[C@@]2(C)CC(c3cc(F)cc(F)c3)=NO2)CO1 (mixture of isomers) [I-09]: 80
C=CC1(C(=O)N[C@H]2CO[C@@H](C(=O)O)C2)CC(c2cc(F)cc(F)c2)=NO1 (relative stereo) [I-21]: 80
COC(=O)C1COCC1NC(=O)C1(C)CC(c2cc(F)cc(F)c2)=NO1 (stereo not drawn) [I-19]: 80

====

# Test system: Stellaria media
# Assay protocol: Pre-emergence herbicidal activity against STEME
# Assay type: in vivo
# Condition label: Stellaria media, 504 h, dosage 80 g/ha
Readout type: pest or weed control at 80 g/ha

COC(=O)C1=C(NC(=O)C2(C)CC(c3cc(F)cc(F)c3)=NO2)COC1 (stereo not shown): 100%
C=C[C@]1(C(=O)N[C@H]2CO[C@@H](C(=O)OC(C)(C)C)C2)CC(c2cc(F)cc(F)c2)=NO1 (mixture of isomers): 100%
COC(=O)C1=C[C@@H](NC(=O)C2(C)CC(c3cccc(F)c3)=NO2)CO1 (stereo partly shown): 100%
COC(=O)C1COCC1NC(=O)C1(OC)CC(c2cc(F)cc(F)c2)=NO1 (stereo not shown): 90%
CC(C)(C)OC(=O)[C@H]1C[C@@H](NC(=O)C2(C)CC(c3cccc(F)c3)=NO2)CO1 (mixture of isomers): 100%
COC(=O)C1COCC1NC(=O)[C@@]1(C)CC(c2cc(F)cc(F)c2)=NO1 (stereo partly shown): 100%
C=C[C@]1(C(=O)NC2COCC2C(=O)OC)CC(c2cc(F)cc(F)c2)=NO1 (stereo partly shown): 100%
C=C[C@]1(C(=O)N[C@H]2CO[C@@H](C(=O)OC)C2)CC(c2cc(F)cc(F)c2)=NO1 (mixture of isomers) [I-10]: 100%
COC(=O)C1COCC1NC(=O)C1(C)CC(c2cc(F)cc(F)c2)=NO1 (stereo not shown): 80%
CC(C)OC(=O)[C@H]1C[C@@H](NC(=O)C2(C)CC(c3cccc(F)c3)=NO2)CO1 (mixture of isomers): 90%
C=C[C@]1(C(=O)N[C@H]2CO[C@@H](C(=O)OC(C)C)C2)CC(c2cc(F)cc(F)c2)=NO1 (mixture of isomers): 100%
CC1(C(=O)N[C@H]2CO[C@@H](C(=O)OCc3ccccc3)C2)CC(c2cccc(F)c2)=NO1 (mixture of isomers): 90%
COC(=O)C1COCC1NC(=O)C1(OC)CC(c2cc(Cl)cc(Cl)c2)=NO1 (stereo not shown): 90%
C=CC1(C(=O)N[C@H]2CO[C@@H](C(=O)O)C2)CC(c2cc(F)cc(F)c2)=NO1 (relative stereo): 100%
CCOC(=O)[C@H]1C[C@@H](NC(=O)C2(C)CC(c3cccc(F)c3)=NO2)CO1 (mixture of isomers): 90%
C=C[C@]1(C(=O)N[C@H]2CO[C@@H](C(=O)OCC)C2)CC(c2cc(F)cc(F)c2)=NO1 (mixture of isomers): 100%

====

# Tested on: Viola tricolor
# Assay protocol: Post-emergence herbicidal activity against VIOTR
# Assay type: in vivo
# Condition label: Viola tricolor, 504 h, dosage 320 g/ha, rated about 3 weeks after treatment
The following compounds are listed with their measured pest or weed control at 320 g/ha values.
Readout type: pest or weed control at 320 g/ha (%)

C=C[C@]1(C(=O)N[C@H]2CO[C@@H](C(=O)OC(C)(C)C)C2)CC(c2cc(F)cc(F)c2)=NO1 (mixture of isomers) [I-38]: 80
C=C[C@]1(C(=O)N[C@H]2CO[C@@H](C(=O)OC(C)C)C2)CC(c2cc(F)cc(F)c2)=NO1 (mixture of isomers) [I-36]: 90
COC(=O)C1=C[C@@H](NC(=O)C2(C)CC(c3cccc(F)c3)=NO2)CO1 (stereo partly shown) [I-46]: 90
COC(=O)C1COCC1NC(=O)[C@@]1(C)CC(c2cc(F)cc(F)c2)=NO1 (stereo partly shown) [I-28]: 80

====

The following compounds are listed with their measured pest or weed control at 320 g/ha values.
# Test system: Abutilon theophrasti
# Assay protocol: Post-emergence herbicidal activity against ABUTH
# Type: in vivo
# Condition label: Abutilon theophrasti, 504 h, dosage 320 g/ha, rated about 3 weeks after treatment
Readout type: pest or weed control at 320 g/ha

C=C[C@]1(C(=O)N[C@@H]2CO[C@@H](C(=O)OC)C2)CC(c2cc(F)cc(F)c2)=NO1 (mixture of isomers): 90%
C=C[C@]1(C(=O)N[C@H]2CO[C@@H](C(=O)OC(C)(C)C)C2)CC(c2cc(F)cc(F)c2)=NO1 (mixture of isomers): 80%
COC(=O)C1COCC1NC(=O)C1(C)CC(c2cc(F)cc(F)c2)=NO1 (stereo not shown): 80%
COC(=O)[C@@]1(OC)C[C@@H](NC(=O)C2(C)CC(c3cccc(F)c3)=NO2)CO1 (stereo partly shown): 80%

====

The following compounds are listed with their measured pest or weed control at 320 g/ha values.
# System: Abutilon theophrasti
# Assay protocol: Post-emergence herbicidal activity against ABUTH
# Type: in vivo
# Condition label: Abutilon theophrasti, 504 h, dosage 320 g/ha, rated about 3 weeks after treatment
Readout type: pest or weed control at 320 g/ha (%)

COC(=O)C1=C[C@H](NC(=O)C2(C)CC(c3cccc(F)c3)=NO2)CO1 (stereo partly shown) [I-39]: 80
COC(=O)[C@H]1C[C@H](NC(=O)[C@@]2(C)CC(c3cc(F)cc(F)c3)=NO2)CO1 (mixture of isomers) [I-55]: 90
C=C[C@]1(C(=O)N[C@H]2CO[C@@H](C(=O)OC(C)C)C2)CC(c2cc(F)cc(F)c2)=NO1 (mixture of isomers) [I-36]: 90
COC(=O)[C@H]1C[C@@H](NC(=O)C2(C)CC(c3cc(F)cc(F)c3)=NO2)CO1 (relative stereo) [I-01]: 80
COC(=O)C1COCC1NC(=O)C1(OC)CC(c2cc(Cl)cc(Cl)c2)=NO1 (stereo not shown) [I-29]: 80
CC1(C(=O)N[C@H]2CO[C@@H](C(=O)OCc3ccccc3)C2)CC(c2cccc(F)c2)=NO1 (mixture of isomers) [I-34]: 80
COC(=O)C1=C(NC(=O)C2(C)CC(c3cc(F)cc(F)c3)=NO2)COC1 (stereo not shown) [I-25]: 80
C=C[C@]1(C(=O)N[C@H]2CO[C@@H](C(=O)OC)C2)CC(c2cc(F)cc(F)c2)=NO1 (mixture of isomers) [I-10]: 90
COC(=O)C1=C[C@@H](NC(=O)C2(C)CC(c3cccc(F)c3)=NO2)CO1 (stereo partly shown) [I-46]: 80
C=C[C@]1(C(=O)N[C@H]2CO[C@@H](C(=O)OCc3ccccc3)C2)CC(c2cc(F)cc(F)c2)=NO1 (mixture of isomers) [I-37]: 80

====

# Test system: Hordeum murinum
# Assay protocol: Post-emergence herbicidal activity against HORMU
# Type: in vivo
# Condition label: Hordeum murinum, 504 h, dosage 320 g/ha
Readout type: pest or weed control at 320 g/ha (%)

COC(=O)C1=C[C@@H](NC(=O)C2(C)CC(c3cccc(F)c3)=NO2)CO1 (stereo partly shown): 100
C=C[C@]1(C(=O)N[C@@H]2CO[C@@H](C(=O)OC)C2)CC(c2cc(F)cc(F)c2)=NO1 (mixture of isomers): 90
C=CC1(C(=O)NC2=C(C(=O)OCC)COC2)CC(c2cc(F)cc(F)c2)=NO1 (stereo not shown): 100
COC(=O)[C@]1(OC)C[C@H](NC(=O)C2(C)CC(c3cccc(F)c3)=NO2)CO1 (stereo partly shown): 90
